Assay: Half life in male Wistar Han rat at 1 mg/kg, iv administered as single dose measured upto 24 hrs
Format: ADME, organism-based
Details: in vivo
value_type: half-life (min)
State just the number; it will be interpreted in min.

# input Give half-life for `C#CCOc1ncc(F)c(OCC#C)n1`
# output 29.8

----------
Experiment: Plasma protein binding in human at 5 uM
Type: ADME, cell-free
Settings: read-out: PPB (converted)
value_type: fraction unbound at 5 µM
Lab note: record just the number, no unit beside it.

# input Give fraction unbound at 5 µM for `C#CCOc1ncc(F)c(OCC#C)n1`
# output 0.142

----------
Assay: AUC (0 to infinity) in male Wistar Han rat at 10 mg/kg, po administered as single dose measured upto 24 hrs
Format: ADME, organism-based
Parameters: time < 24 hrs, dose 10 mg/kg, route po
Conditions: in vivo
value_type: AUC(0-inf) (ng·h/mL)
State just the number; it will be interpreted in ng·h/mL.

# input Give AUC(0-inf) for `C#CCOc1ncc(F)c(OCC#C)n1`
# output 6190

----------
Test: AUC (0 to infinity) in maleWistar Han rat at 1000 mg/kg, po administered as single dose measured upto 24 hrs
Format: ADME, organism-based
Parameters: time < 24 hrs, dose 1000 mg/kg, route po
Conditions: male, Wistar Han, in vivo
value_type: AUC(0-inf) (µg·h/mL)
State just the number; it will be interpreted in µg·h/mL.

# input Give AUC(0-inf) for `C#CCOc1ncc(F)c(OCC#C)n1`
# output 2610

----------
Assay: Clearance in male Wistar Han rat at 1 mg/kg, iv administered as single dose measured upto 24 hrs
Assay type: ADME, organism-based
Settings: in vivo
value_type: clearance (mL/min/kg)
State just the number; it will be interpreted in mL/min/kg.

# input Give clearance for `C#CCOc1ncc(F)c(OCC#C)n1`
# output 52.1

----------
Experiment: Plasma protein binding in human assessed as compound recovery at 5 uM
Format: ADME, cell-free
Conditions: read-out: Drug recovery
value_type: recovery at 5 µM
Include the unit after the number when you answer.

# input Give recovery at 5 µM for `C#CCOc1ncc(F)c(OCC#C)n1`
# output 95.7%

----------
Test: Mean residence time in male Wistar Han rat at 10 mg/kg, po administered as single dose measured upto 24 hrs
Format: ADME, organism-based
Conditions: in vivo
value_type: MRT (h)
State just the number; it will be interpreted in h.

# input Give MRT for `C#CCOc1ncc(F)c(OCC#C)n1`
# output 1.86

----------
Test: Metabolic stability in human hepatocytes assessed as half life at 1 uM by LC-MS/MS analysis
Format: ADME, cell-based, Hepatocyte
value_type: half-life at 1 µM (h)
State just the number; it will be interpreted in h.

# input Give half-life at 1 µM for `C#CCOc1ncc(F)c(OCC#C)n1`
# output 5.37

----------
Assay: Tmax in female Wistar Han rat at 1000 mg/kg, po administered as single dose measured upto 24 hrs
Assay type: ADME, organism-based
Conditions: in vivo
value_type: Tmax (h)
State just the number; it will be interpreted in h.

# input Give Tmax for `C#CCOc1ncc(F)c(OCC#C)n1`
# output 4

----------
Test: Volume of distribution at steady state in male Wistar Han rat at 1 mg/kg, iv administered as single dose measured upto 24 hrs
Type: ADME, organism-based
Details: in vivo, read-out: Vdss
value_type: Vd (L/kg)
State just the number; it will be interpreted in L/kg.

# input Give Vd for `C#CCOc1ncc(F)c(OCC#C)n1`
# output 1.76

----------
Experiment: Metabolic stability in rat hepatocytes assessed as half life at 3 uM by LC-MS/MS analysis
Type: ADME, cell-based, Hepatocyte
value_type: half-life at 3 µM (min)
State just the number; it will be interpreted in min.

# input Give half-life at 3 µM for `C#CCOc1ncc(F)c(OCC#C)n1`
# output 418

----------
Experiment: Apparent permeability across apical to basolateral side in human Caco-2 cells at 10 uM measured after 120 mins by LC-MS/MS analysis
Assay type: ADME, cell-based
value_type: Papp A→B at 2 h, 10 µM (×10⁻⁶ cm/s)
State just the number; it will be interpreted in ×10⁻⁶ cm/s.

# input Give Papp A→B at 2 h, 10 µM for `C#CCOc1ncc(F)c(OCC#C)n1`
# output 28.1

----------
Assay: Efflux ratio of apparent permeability across basolateral to apical side over apical to basolateral side in human Caco2 cells at 10 uM measured after 120 mins by LC-MS/MS analysis
Assay type: ADME, cell-based
Settings: Caco-2
value_type: efflux ratio at 2 h, 10 µM
Lab note: record just the number, no unit beside it.

# input Give efflux ratio at 2 h, 10 µM for `C#CCOc1ncc(F)c(OCC#C)n1`
# output 1.38

----------
Experiment: Plasma protein binding in rat assessed as compound recovery at 5 uM
Format: ADME, cell-free
Conditions: read-out: Drug recovery
value_type: recovery at 5 µM (%)
State just the number; it will be interpreted in %.

# input Give recovery at 5 µM for `C#CCOc1ncc(F)c(OCC#C)n1`
# output 94.8

----------
Test: Apparent permeability across basolateral to apical side in human Caco-2 cells assessed as drug recovery at 10 uM measured after 120 mins by LC-MS/MS analysis
Assay type: ADME, cell-based
Conditions: read-out: Drug recovery
value_type: recovery at 2 h, 10 µM (%)
State just the number; it will be interpreted in %.

# input Give recovery at 2 h, 10 µM for `C#CCOc1ncc(F)c(OCC#C)n1`
# output 73.9

----------
Test: Cmax in female Wistar Han rat at 1000 mg/kg, po administered as single dose measured upto 24 hrs
Assay type: ADME, organism-based
Set-up: time < 24 hrs, dose 1000 mg/kg, route po
Details: in vivo
value_type: Cmax (µg/mL)
State just the number; it will be interpreted in µg/mL.

# input Give Cmax for `C#CCOc1ncc(F)c(OCC#C)n1`
# output 83.6

----------
Assay: Stability in Sprague-Dawley rat hepatocytes assessed as parent compound remaining at 10 uM measured after 60 mins by UPLC analysis
Format: ADME, cell-based, Hepatocyte
Conditions: read-out: Stability
value_type: remaining at 1 h, 10 µM (%)
State just the number; it will be interpreted in %.

# input Give remaining at 1 h, 10 µM for `C#CCOc1ncc(F)c(OCC#C)n1`
# output 95

----------
Experiment: Metabolic stability in rat hepatocytes assessed as intrinsic clearance at 3 uM measured per 10^6 cells by LC-MS/MS analysis
Type: ADME, cell-based, Hepatocyte
Conditions: read-out: CLH
value_type: hepatocyte CLint at 3 µM (µL/min/1e6 cells)
State just the number; it will be interpreted in µL/min/1e6 cells.

# input Give hepatocyte CLint at 3 µM for `C#CCOc1ncc(F)c(OCC#C)n1`
# output 3.31

----------
Assay: Plasma protein binding in rat at 5 uM
Assay type: ADME, cell-free
Details: read-out: PPB (converted)
value_type: fraction unbound at 5 µM
Lab note: record just the number, no unit beside it.

# input Give fraction unbound at 5 µM for `C#CCOc1ncc(F)c(OCC#C)n1`
# output 0.161

----------
Assay: AUC (0 to infinity) in male Wistar Han rat at 1 mg/kg, iv administered as single dose measured upto 24 hrs
Type: ADME, organism-based
Parameters: time < 24 hrs, dose 1 mg/kg, route iv
Details: in vivo
value_type: AUC(0-inf)

# input Give AUC(0-inf) for `C#CCOc1ncc(F)c(OCC#C)n1`
# output 330 ng·h/mL

----------
Assay: Metabolic stability in human hepatocytes assessed as intrinsic clearance at 1 uM measured per 10^6 cells by LC-MS/MS analysis
Assay type: ADME, cell-based, Hepatocyte
Details: read-out: CLH
value_type: hepatocyte CLint at 1 µM (µL/min/1e6 cells)
State just the number; it will be interpreted in µL/min/1e6 cells.

# input Give hepatocyte CLint at 1 µM for `C#CCOc1ncc(F)c(OCC#C)n1`
# output 4.51

----------
Test: Cmax in male Wistar Han rat at 1000 mg/kg, po administered as single dose measured upto 24 hrs
Type: ADME, organism-based
Set-up: time < 24 hrs, dose 1000 mg/kg, route po
Conditions: in vivo
value_type: Cmax
Include the unit after the number when you answer.

# input Give Cmax for `C#CCOc1ncc(F)c(OCC#C)n1`
# output 84.7 µg/mL

----------
Test: AUC (0 to t) in female Wistar Han rat at 1000 mg/kg, po administered as single dose measured upto 24 hrs
Type: ADME, organism-based
Design: dose 1000 mg/kg, time < 24 hrs, route po
Settings: in vivo
value_type: AUC(0-t) at 24 h
Include the unit after the number when you answer.

# input Give AUC(0-t) at 24 h for `C#CCOc1ncc(F)c(OCC#C)n1`
# output 1210 µg·h/mL

----------
Test: Metabolic stability in rat hepatocytes assessed as intrinsic clearance at 1 uM measured per 10^6 cells by LC-MS/MS analysis
Format: ADME, cell-based, Hepatocyte
Conditions: read-out: CLH
value_type: hepatocyte CLint at 1 µM (µL/min/1e6 cells)
State just the number; it will be interpreted in µL/min/1e6 cells.

# input Give hepatocyte CLint at 1 µM for `C#CCOc1ncc(F)c(OCC#C)n1`
# output 15.3
